experiment: in vitro; conditions: African green monkey
What CC50 was measured for each of the following?

Here is how some compounds turned out for CC50.
{"compound": "O=[N+]([O-])c1ccc(N2CCOCC2)cc1NC(c1ccccc1)c1ccccc1", "CC50": "> 100 µM"}
{"compound": "CN1CCN(c2ccc3ncn(C(C)(C)c4ccccc4)c3c2)CC1", "CC50": "> 200 µM"}
{"compound": "CN1CCN(c2cc(C#N)c([N+](=O)[O-])c(NC(c3ccccc3)c3ccccc3)c2)CC1", "CC50": "> 100 µM"}

Shift focus to the following entry.
I am curious: what CC50 value has been reported for CN1CCN(c2ccc([N+](=O)[O-])c(NC(c3ccccc3)c3ccccn3)c2)CC1 (stereo not shown) ?
> 100 µM
